TARGET SYSTEM: SARS2 protease (Severe acute respiratory syndrome coronavirus 2)
METHOD: SARS-CoV-2 protease inhibition assay (SARS2 FRET protease assay)
Format: biochemical
CONDITIONS: SARS-CoV-2 protease 25 nM, FRET, peptide substrate 1.3 μM, 30 minutes at 30° C., compounds 20 μM to 1.0 nM; read-out: IC50
MEASURE NAME: IC50 (µM)
One number for each entry, in µM.

CCOC(=O)/C=C/[C@H](C[C@@H]1CCNC1=O)NC(=O)[C@H](CC(C)C)NC(=O)OC(Cc1ccccc1)c1ccccc1 (stereo partly drawn) [Compound C232] | 15.1
CC(C)C[C@H](NC(=O)OC(c1ccccc1)C(C)(C)c1cccc(Cl)c1)C(=O)N[C@@H](C[C@@H]1CCNC1=O)C(=O)C(=O)NC1CC1 (stereo partly drawn) [Compound C166] | 0.014
CC(C)C[C@H](NC(=O)OC1CCCC1Cc1ccccc1)C(=O)N[C@@H](C[C@@H]1CCNC1=O)C(=O)C(N)=O (stereo partly drawn) [Compound C240] | 0.23
CC(C)(c1cccc(Cl)c1)C(OC(=O)N[C@@H](CC1CCCCC1)C(=O)N[C@@H](C[C@@H]1CCNC1=O)C(=O)C(N)=O)c1ccc(Cl)cc1 (stereo partly drawn) [Compound C134] | 0.767
CC1(C)CC(CC(NC(=O)[C@H](CC2CCCCC2)NC(=O)OC(c2cccc(F)c2)C(C)(C)c2cccc(Cl)c2)C(=O)C(N)=O)C(=O)N1 (stereo partly drawn) [Compound C220] | 1.83
CC(C)C[C@H](NC(=O)OC1CCN(C(=O)OC(C)(C)C)CC1)C(=O)N[C@H](C=O)C[C@@H]1CCNC1=O [Compound C34] | 0.1
CC(C)C[C@H](NC(=O)OC(Cc1ccccc1)c1ccccc1)C(=O)N[C@@H](C[C@@H]1CCNC1=O)C(O)S(=O)(=O)O (stereo partly drawn) [Compound C53] | 0.04
O=C(N[C@@H](CC1CCCCC1)C(=O)NC(CC1CC2(CCCCC2)NC1=O)C(=O)C(=O)NC1CC1)OC(Cc1cccc(Cl)c1)c1cccc(Cl)c1 (stereo partly drawn) [Compound C195] | 2.01
O=C(N[C@@H](CC1CCCCC1)C(=O)N[C@@H](C[C@@H]1CCNC1=O)C(O)S(=O)(=O)O)OC(Cc1cccc(Cl)c1)c1ccccc1 (stereo partly drawn) [Compound C115] | 0.0157

**Q:** Data request, read-out IC50, for O=C(N[C@@H](CC1CCCCC1)C(=O)N[C@@H](C[C@@H]1CCNC1=O)C(=O)C(=O)NC1CC1)O[C@H]1CCC[C@@H]1Cc1cccc(Cl)c1 [Compound C264]
**A:** 0.68

----------
TARGET SYSTEM: SARS2 protease (Severe acute respiratory syndrome coronavirus 2)
METHOD: SARS-CoV-2 protease inhibition assay (SARS2 FRET protease assay)
Type: biochemical
CONDITIONS: SARS-CoV-2 protease 25 nM, FRET, peptide substrate 1.3 μM, 30 minutes at 30° C., compounds 20 μM to 1.0 nM; read-out: IC50
Task for the reader: assign each of the following compounds its reported pIC50.
Give bare numbers, as −log10 of the molar value.

CC(C)C[C@H](NC(=O)OC1(Cc2ccccc2)CCC1)C(=O)N[C@@H](C[C@@H]1CCNC1=O)C(=O)C(N)=O [Compound C73] | 6.22

**Q:** Data request, read-out pIC50, for CC(=O)N1CCC2(CC1)CC(CC(C=O)NC(=O)[C@H](CC(C)C)NC(=O)OCC1CCC(F)(F)CC1)C(=O)N2 (stereo partly drawn) [Compound C64]
**A:** 7.00

----------
Task for the reader: assign each of the following compounds its reported IC50.
TARGET SYSTEM: SARS2 protease (Severe acute respiratory syndrome coronavirus 2, UniProt P0DTD1)
METHOD: SARS-CoV-2 protease inhibition assay (SARS2 FRET protease assay)
Format: biochemical
CONDITIONS: SARS-CoV-2 protease 25 nM, FRET, peptide substrate 1.3 μM, 30 minutes at 30° C., compounds 20 μM to 1.0 nM; read-out: IC50
Answers are plain numbers, in nM.

CC(C)(COC(=O)N[C@H](C(=O)N[C@@H](C[C@@H]1CCNC1=O)C(O)S(=O)(=O)O)C(C)(C)C)c1cccc(Cl)c1 (stereo partly drawn) | 491

Hi, could you look up IC50 for each item in my list?
1. CCOP(=O)(OCC)C(O)C(CC1CC2(CCN(C(C)=O)CC2)NC1=O)NC(=O)[C@H](CC1CCCCC1)NC(=O)c1cc2ccccc2[nH]1 (stereo partly drawn)
2. CCCOC(=O)N[C@@H](CC1CCCCC1)C(=O)N[C@@H](CCC(=O)N1CCOc2ccccc2C1)C(O)P(=O)(OCC)OCC (stereo partly drawn)
3. CC(=O)N1CCC2(CC1)CC(CC(C=O)NC(=O)[C@H](CC(C)C)NC(=O)OCC(C)(C)c1cccc(Cl)c1)C(=O)N2 (stereo partly drawn)

**A:**
1: 200; 2: 94300; 3: 100

**Q:** Data request, read-out IC50, for O=C(N[C@@H](CC1CCCCC1)C(=O)N[C@@H](CC1CC2(CCCCC2)NC1=O)C(=O)CCl)OCc1cccc(Cl)c1 (stereo partly drawn)
**A:** 620

----------
Task for the reader: assign each of the following compounds its reported pIC50.
TARGET SYSTEM: UniProtKB P0DTD1
METHOD: SARS-CoV-2 protease inhibition assay (SARS2 FRET protease assay)
Assay type: biochemical
CONDITIONS: SARS-CoV-2 protease 25 nM, FRET, peptide substrate 1.3 μM, 30 minutes at 30° C., compounds 20 μM to 1.0 nM; read-out: IC50
Numbers only, as −log10 of the molar value.

CC1(C)CC(CC(NC(=O)[C@H](CC2CCCCC2)NC(=O)OC(c2ccc(Cl)cc2)C(C)(C)c2cccc(Cl)c2)C(=O)C(=O)NC2CC2)C(=O)N1 (stereo partly shown) | 5.70

Hi, could you look up pIC50 for each item in my list?
1. NC(=O)C(=O)[C@H](C[C@@H]1CCNC1=O)NC(=O)[C@H](CC1CCCCC1)NC(=O)OC(Cc1cccc(Cl)c1)c1ccccc1 (stereo partly shown)
2. Cc1cccc(C(OC(=O)N[C@@H](CC2CCCCC2)C(=O)N[C@@H](C[C@@H]2CCNC2=O)C(=O)C(N)=O)C(C)(C)c2cccc(Cl)c2)c1 (stereo partly shown)
3. CC(C)C[C@H](NC(=O)OC(c1ccccc1)C(C)(C)c1cccc(Cl)c1)C(=O)N[C@@H](C[C@@H]1CCNC1=O)C(=O)CCl (stereo partly shown)
4. CC1(C)CC(CC(NC(=O)[C@H](CC2CCCCC2)NC(=O)OC(Cc2cccc(Cl)c2)c2ccccc2)C(=O)C(=O)NC2CC2)C(=O)N1 (stereo partly shown)
5. CC(C)C[C@H](NC(=O)OC1CCN(C(=O)OC(C)(C)C)CC1)C(=O)N[C@@H](C[C@@H]1CCNC1=O)C(O)S(=O)(=O)O (stereo partly shown)
6. CC(C)C[C@H](NC(=O)OC(c1ccc(F)cc1)C(C)(C)c1cccc(Cl)c1)C(=O)N[C@H](C=O)C[C@@H]1CCNC1=O (stereo partly shown)
7. CC1(C)CC(C[C@@H](C=O)NC(=O)[C@H](CC2CCCCC2)NC(=O)OC2CCCC2Cc2cccc(Cl)c2)C(=O)N1 (stereo partly shown)

**A:**
1: 5.31; 2: 6.49; 3: 5.73; 4: 5.81; 5: 6.94; 6: 10.00; 7: 7.28

Hi, could you look up pIC50 for each item in my list?
1. O=C[C@H](CC1CC2(CCCC2)NC1=O)NC(=O)[C@H](CC1CCCCC1)NC(=O)OC1CCCC1Cc1cccc(Cl)c1 (stereo partly shown)
2. CC(C)C[C@H](NC(=O)OC(c1ccccc1)C1(c2cccc(Cl)c2)CCCC1)C(=O)N[C@H](C=O)C[C@@H]1CCNC1=O (stereo partly shown)
3. O=C[C@H](C[C@@H]1CCNC1=O)NC(=O)[C@H](CC1CCCCC1)NC(=O)OC(Cc1cccc(Cl)c1)c1ccccc1 (stereo partly shown)

**A:**
6.98
7.70
8.70

Hi, could you look up pIC50 for each item in my list?
1. CC(=O)N1CCC2(CC1)CC(CC(C=O)NC(=O)[C@H](CC1CCCCC1)NC(=O)c1cc3ccccc3[nH]1)C(=O)N2 (stereo partly shown)
2. O=C[C@H](CC1CC2(CCOCC2)NC1=O)NC(=O)[C@H](CC1CCCCC1)NC(=O)OCc1cccc(Cl)c1 (stereo partly shown)
3. CCCCCOC(=O)N[C@@H](CC(C)C)C(=O)NC(C)(C=O)CC1CCNC1=O (stereo partly shown)
4. CC1(C)CC(C[C@H](NC(=O)[C@H](CC2CCCCC2)NC(=O)OC2CCCC2Cc2cccc(Cl)c2)C(=O)C(=O)NC2CC2)C(=O)N1 (stereo partly shown)
5. CC(C)C[C@H](NC(=O)OC(c1ccccc1)C(F)(F)c1cccc(Cl)c1)C(=O)N[C@@H](C[C@@H]1CCNC1=O)C(=O)C(=O)NC1CC1 (stereo partly shown)
6. CC(C)C[C@H](NC(=O)OC(C)(C)Cc1ccccc1)C(=O)N[C@@H](C[C@@H]1CCNC1=O)C(O)S(=O)(=O)O (stereo partly shown)

**A:**
[8.92, 9.19, 4.57, 5.69, 7.05, 6.10]

Hey, just so you know, these numbers are from patent US20230159453A1.
